assayedSystem: human 11β-HSD1 (Homo sapiens, UniProt P28845)
Construct: expressed in transfected cells; host or cells: CHO cells (microsomes)
Sequence (P28845 whole entry): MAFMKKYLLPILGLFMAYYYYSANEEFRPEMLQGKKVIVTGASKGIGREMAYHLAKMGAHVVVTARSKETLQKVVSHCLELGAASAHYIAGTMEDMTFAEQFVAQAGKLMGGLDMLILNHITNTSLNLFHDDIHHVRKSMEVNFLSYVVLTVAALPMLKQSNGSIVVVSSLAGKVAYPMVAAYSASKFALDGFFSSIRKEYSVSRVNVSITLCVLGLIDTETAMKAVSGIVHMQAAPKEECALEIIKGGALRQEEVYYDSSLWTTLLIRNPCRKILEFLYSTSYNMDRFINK
experimentalDetails: Biological Test Example 1: inhibition of a microsomal preparation of 11β-HSD1 (SPA)
Format: biochemical
conditions: Biological Test Example 1; read-out: IC50 Range
measuredParameter: IC50

[
  {
    "molecule": "N#Cc1ccc(N2CCC[C@H](N3CC[C@](CCCO)(c4ccc(F)cc4)OC3=O)C2)nc1 [Example 17]",
    "recordedResult": "< 0.1 µM"
  },
  {
    "molecule": "COC(=O)c1cnc(N2CCC[C@H](N3CC[C@](CC(C)(C)O)(c4ccccc4)OC3=O)C2)nc1 [Example 10]",
    "recordedResult": "< 0.1 µM"
  },
  {
    "molecule": "Cc1cnc(N2CCC[C@H](N3CC[C@](CC(C)(C)O)(c4ccccc4)OC3=O)C2)s1 [Example 13]",
    "recordedResult": "< 0.1 µM"
  }
]

###

assayedSystem: human 11β-HSD1 (Homo sapiens)
Construct: expressed in transfected cells; host or cells: CHO cells (microsomes)
experimentalDetails: Biological Test Example 1: inhibition of a microsomal preparation of 11β-HSD1 (SPA)
Assay type: biochemical
conditions: read-out: Average % inhibition at 100 nM
# cutoff 90% applies to inhibition at 0.1 µM; >= gives Y, < gives N

[
  {
    "molecule": "CC(C)(O)C[C@]1(c2ccccc2)CCN([C@H]2CCCN(c3ncc(C(=O)NC(C)(C)C)s3)C2)C(=O)O1 [Example 21]",
    "label": "N"
  },
  {
    "molecule": "CC(C)(O)C[C@]1(c2ccccc2)CCN([C@H]2CCN(c3ncc(Cl)cn3)C2)C(=O)O1 [Example 14]",
    "label": "Y"
  },
  {
    "molecule": "COC(=O)c1cnc(N2CCC[C@H](N3CC[C@](CC(C)(C)O)(c4ccccc4)OC3=O)C2)nc1 [Example 10]",
    "label": "N"
  },
  {
    "molecule": "CC(C)(O)C[C@]1(c2ccccc2)CCN([C@H]2CCCN(c3ccnc(C(F)(F)F)n3)C2)C(=O)O1 [Example 11]",
    "label": "N"
  },
  {
    "molecule": "CC(C)(O)C[C@]1(c2ccccc2)CCN([C@H]2CCCN(c3ncccc3F)C2)C(=O)O1 [Example 1]",
    "label": "N"
  }
]

###

assayedSystem: human 11β-HSD1 (Homo sapiens)
Construct: expressed in transfected cells; host or cells: CHO cells (microsomes)
experimentalDetails: Biological Test Example 1: inhibition of a microsomal preparation of 11β-HSD1 (SPA)
Assay type: biochemical
conditions: read-out: Average % inhibition at 100 nM

[
  {
    "chemicalString": "CC(C)(O)C[C@]1(c2ccccc2)CCN([C@H]2CCCN(c3cc(C(F)(F)F)ccn3)C2)C(=O)O1",
    "scaleUnit": "%",
    "inhibition at 0.1 µM": 91.3
  },
  {
    "chemicalString": "CC(C)(O)C[C@]1(c2ccccc2)CCN([C@H]2CCCN(c3cccc(C(F)(F)F)n3)C2)C(=O)O1",
    "scaleUnit": "%",
    "inhibition at 0.1 µM": 86
  },
  {
    "chemicalString": "N#Cc1ccc(N2CCC[C@H](N3CC[C@](CCCO)(c4ccc(F)cc4)OC3=O)C2)nc1",
    "scaleUnit": "%",
    "inhibition at 0.1 µM": 94.7
  },
  {
    "chemicalString": "CC(C)(O)C[C@]1(c2ccccc2)CCN([C@H]2CCCN(c3ncccc3C(F)(F)F)C2)C(=O)O1",
    "scaleUnit": "%",
    "inhibition at 0.1 µM": 77.8
  }
]

###

assayedSystem: human 11β-HSD1 (Homo sapiens, UniProt P28845)
Construct: expressed in transfected cells; host or cells: CHO cells (microsomes)
experimentalDetails: Biological Test Example 1: inhibition of a microsomal preparation of 11β-HSD1 (SPA)
Type: biochemical
conditions: Biological Test Example 1; read-out: IC50 Range
Each record here notes measured IC50.
measuredParameter: IC50

[
  {
    "molecule": "Cc1nnc(N2CCC[C@H](N3CC[C@](CC(C)(C)O)(c4ccccc4)OC3=O)C2)cc1Cl [Example 22]",
    "measuredParameter": "IC50",
    "recordedResult": "0.19 µM"
  },
  {
    "molecule": "CC(C)(O)C[C@]1(c2ccccc2)CCN([C@H]2CCCN(c3cc(C(F)(F)F)ccn3)C2)C(=O)O1 [Example 3]",
    "measuredParameter": "IC50",
    "recordedResult": "< 0.1 µM"
  },
  {
    "molecule": "CN(C)C(=O)c1ccc(N2CCC[C@H](N3CC[C@](CCCO)(c4ccc(F)cc4)OC3=O)C2)nc1 [Example 20]",
    "measuredParameter": "IC50",
    "recordedResult": "< 0.1 µM"
  },
  {
    "molecule": "CC(C)(O)C[C@]1(c2ccccc2)CCN([C@H]2CCCN(c3ccnc(C(F)(F)F)n3)C2)C(=O)O1 [Example 11]",
    "measuredParameter": "IC50",
    "recordedResult": "< 0.1 µM"
  },
  {
    "molecule": "Cc1cc(N2CCC[C@H](N3CC[C@](CC(C)(C)O)(c4ccccc4)OC3=O)C2)nc(C)n1 [Example 9]",
    "measuredParameter": "IC50",
    "recordedResult": "< 0.1 µM"
  },
  {
    "molecule": "CC(C)(O)C[C@]1(c2ccccc2)CCN([C@H]2CCCN(c3ccc(C(F)(F)F)cn3)C2)C(=O)O1 [Example 4]",
    "measuredParameter": "IC50",
    "recordedResult": "< 0.1 µM"
  },
  {
    "molecule": "NC(=O)c1ccc(N2CCC[C@H](N3CC[C@](CCCO)(c4ccc(F)cc4)OC3=O)C2)nc1 [Example 18]",
    "measuredParameter": "IC50",
    "recordedResult": "< 0.1 µM"
  },
  {
    "molecule": "CC(C)(O)C[C@]1(c2ccccc2)CCN([C@H]2CCN(c3ccc(C(F)(F)F)cn3)C2)C(=O)O1 [Example 15]",
    "measuredParameter": "IC50",
    "recordedResult": "< 0.1 µM"
  },
  {
    "molecule": "COc1cnc(N2CCC[C@H](N3CC[C@](CC(C)(C)O)(c4ccccc4)OC3=O)C2)nc1 [Example 12]",
    "measuredParameter": "IC50",
    "recordedResult": "< 0.1 µM"
  },
  {
    "molecule": "CC(C)(O)C[C@]1(c2ccccc2)CCN([C@H]2CCCN(c3ncc(C(=O)NC(C)(C)C)s3)C2)C(=O)O1 [Example 21]",
    "measuredParameter": "IC50",
    "recordedResult": "0.19 µM"
  },
  {
    "molecule": "CC(C)(O)C[C@]1(c2ccccc2)CCN([C@H]2CCN(c3ncc(Cl)cn3)C2)C(=O)O1 [Example 14]",
    "measuredParameter": "IC50",
    "recordedResult": "< 0.1 µM"
  },
  {
    "molecule": "CC(C)(O)C[C@]1(c2ccccc2)CCN([C@H]2CCCN(c3ncccc3F)C2)C(=O)O1 [Example 1]",
    "measuredParameter": "IC50",
    "recordedResult": "< 0.1 µM"
  },
  {
    "molecule": "CC(C)(O)C[C@]1(c2ccccc2)CCN([C@H]2CCCN(c3ncc(F)cn3)C2)C(=O)O1 [Example 7]",
    "measuredParameter": "IC50",
    "recordedResult": "< 0.1 µM"
  },
  {
    "molecule": "CC(C)(O)C[C@]1(c2ccccc2)CCN([C@H]2CCCN(c3cccc(C(F)(F)F)n3)C2)C(=O)O1 [Example 5]",
    "measuredParameter": "IC50",
    "recordedResult": "< 0.1 µM"
  },
  {
    "molecule": "CC(C)(O)C[C@]1(c2ccccc2)CCN([C@H]2CCCN(c3ncccc3C(F)(F)F)C2)C(=O)O1 [Example 2]",
    "measuredParameter": "IC50",
    "recordedResult": "< 0.1 µM"
  }
]
